Listed here are compounds together with their documented melting point.

Study these solved cases before continuing.
COC(=O)c1ccccc1OCCOc1cccc2oc(-c3ccccc3)cc(=O)c12
160 to 161 °C
O=C(O)/C(=C/c1ccc(OCc2ccccc2)cc1OCc1ccccc1)NC(=O)c1ccccc1
149 to 150 °C
COc1ccc(Cc2ccc(Sc3ccccc3)s2)cc1
92 to 93 °C

Data request: Consider the compound N#Cc1ccc(OCc2ccncc2)cc1OC(C(=O)O)c1ccccc1Br (racemic) and give its measured melting point.
Data returned: 171 to 172 °C

Data request: // repeat for CCCn1c(COCC)nc2c(N)nc3ccc(OCCCCCCNS(C)(=O)=O)cc3c21 and report
Data returned: 164 to 167 °C

Data request: // repeat for CC(C)(Cc1ccccc1)Oc1ccc([N+](=O)[O-])cc1 and report
Data returned: 78 to 79 °C
